Molecular target: T1, exemplary TAT frataxin fusion molecule (HIV-1, UniProt Q16595 1-210)
T1 construct: in the bridging assays biotinylated and sulfotagged forms were used; also called TAT-FXN fusion molecule; TAT FXN fusion molecule
T1 sequence: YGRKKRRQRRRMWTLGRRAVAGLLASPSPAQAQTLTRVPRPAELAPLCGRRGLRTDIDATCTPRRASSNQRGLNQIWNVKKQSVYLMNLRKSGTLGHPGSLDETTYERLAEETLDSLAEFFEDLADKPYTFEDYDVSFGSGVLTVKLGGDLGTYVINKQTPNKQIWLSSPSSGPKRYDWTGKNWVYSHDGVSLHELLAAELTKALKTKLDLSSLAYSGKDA
Assay: PK sandwich ELISA in human plasma, antibody as capture, HRP anti-frataxin mAb detection
ASSAY ENDPOINT: Mean OD at plasma conc. 0.800 ng/mL (OD)
Form entry: value (OD) — number only.

Task item: I'd like to know its Mean OD at plasma conc. 0.800 ng/mL. The binder in question is antibody 12-8 (antibody, V domains shown, Rabbit monoclonal) VH: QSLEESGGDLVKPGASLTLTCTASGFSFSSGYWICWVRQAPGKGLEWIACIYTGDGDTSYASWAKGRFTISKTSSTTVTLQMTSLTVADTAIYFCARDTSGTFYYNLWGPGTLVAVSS VL: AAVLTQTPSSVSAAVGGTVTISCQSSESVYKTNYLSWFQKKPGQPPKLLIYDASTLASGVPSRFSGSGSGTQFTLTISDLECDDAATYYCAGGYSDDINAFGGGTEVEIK
Reply: 0.087

Task item: So what's the measured Mean OD at plasma conc. 0.800 ng/mL for this one? antibody 10-12 (antibody, V domains shown, Rabbit monoclonal) VH: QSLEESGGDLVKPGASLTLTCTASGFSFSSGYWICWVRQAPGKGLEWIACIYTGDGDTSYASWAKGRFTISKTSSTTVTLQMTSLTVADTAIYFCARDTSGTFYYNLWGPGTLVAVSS VL: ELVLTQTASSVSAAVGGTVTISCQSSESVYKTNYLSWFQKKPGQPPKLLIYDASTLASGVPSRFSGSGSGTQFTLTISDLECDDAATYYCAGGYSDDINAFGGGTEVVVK
Reply: 0.092

Task item: Please report the recorded Mean OD at plasma conc. 0.800 ng/mL for antibody 12-1 (antibody, V domains shown, Rabbit monoclonal) VH: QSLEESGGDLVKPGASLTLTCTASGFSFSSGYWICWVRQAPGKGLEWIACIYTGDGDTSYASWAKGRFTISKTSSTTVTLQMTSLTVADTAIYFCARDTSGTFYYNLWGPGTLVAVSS VL: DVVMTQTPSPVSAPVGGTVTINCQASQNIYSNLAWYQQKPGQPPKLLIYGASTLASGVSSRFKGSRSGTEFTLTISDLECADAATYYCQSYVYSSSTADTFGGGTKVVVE .
Reply: 0.088

Task item: Suppose we examine the binder antibody 10-1 (antibody, V domains shown, Rabbit monoclonal) VH: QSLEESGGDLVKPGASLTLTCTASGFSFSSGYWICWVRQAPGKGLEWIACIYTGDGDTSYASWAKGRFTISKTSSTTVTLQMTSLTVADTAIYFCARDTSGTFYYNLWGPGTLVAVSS VL: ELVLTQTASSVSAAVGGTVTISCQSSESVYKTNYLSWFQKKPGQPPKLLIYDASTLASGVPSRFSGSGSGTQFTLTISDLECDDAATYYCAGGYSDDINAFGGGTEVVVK ; what Mean OD at plasma conc. 0.800 ng/mL value has been reported?
Reply: 0.093

Where do the numbers come from? From patent US20230061973A1.
